Test system: MDA-MB-231
ASSAY TEXT: NCI tumour cell line growth inhibition, 48 h
Active and inactive are the calls of the source. Cut-off read from the data, not from the text of the source: active = GI50 up to about 1.1 µM and inactive = higher.
PROPERTY MEASURED: GI50

CCOC(=O)C(=O)/C(=C\NC(=S)Nc1ccccc1Cl)C(=O)OCC; > 100 µM (inactive)

Please turn your attention to the following entry.
Query: Recorded GI50 for `COC(=O)CC[C@@H](C)[C@H]1CC[C@H]2[C@@H]3CC[C@@H]4C[C@H](O)CC[C@]4(C)[C@H]3CC[C@]12C` , please?
Result: 17.8 µM (inactive)

====

Tested on: T47D
ASSAY TEXT: NCI tumour cell line growth inhibition, 48 h
Active and inactive are the calls of the source. Rule as the data show it: active = GI50 up to about 1.1 µM and inactive = higher.
PROPERTY MEASURED: GI50

Known GI50 results, listed for orientation:
Cc1c(-c2nc(N)nc(C3CC3)c2C)nc(N)nc1C1CC1; > 100 µM (inactive)
COC(=O)CC[C@@H](C)[C@H]1CC[C@H]2[C@@H]3CC[C@@H]4C[C@H](O)CC[C@]4(C)[C@H]3CC[C@]12C; 19.4 µM (inactive)
COC(=O)[C@]1(NC(=O)c2ccccc2)C[C@H]1C=O; > 100 µM (inactive)

Query: Record request: GI50 value, item Cc1ccc([N+](=O)[O-])cc1S(=O)(=O)Nc1ccc(C2=NNC(c3ccccc3)C2)cc1 (configuration not stated)
Result: 4.23 µM (inactive)

Query: Any idea what its GI50 is? The molecule is `Cn1c(=O)c2ccccc2c2ccccc21`
Result: 57.8 µM (inactive)

Query: Reported GI50 for `CSc1cc(Cl)c(C(=O)Nc2ccccc2)cc1S(=O)(=O)n1ccnc1O` : what is it?
Result: > 100 µM (inactive)

Query: Please give the measured GI50 for this molecule: CCOC(=O)C1=CC(C)(C(=O)OCC)Nc2c(nc(OC)n(C)c2=O)N1 (configuration not stated)
Result: > 10 µM (inactive)

Query: Fill in: GI50 of `Fc1ccc(/N=C/C=C/Nc2ccc(F)cc2)cc1` is ___
Result: 6.37 µM (inactive)

Query: Consider the molecule `O=C(O)CSC1=NC(=O)C2(NN1)c1ccccc1-c1ccccc12` and give its measured GI50.
Result: > 10 µM (inactive)

Query: Fill in: GI50 of `NC1=C(N2CCOCC2)C(=O)NC2=N/C(=C\c3ccccc3O)C(=O)N21` is ___
Result: 51.2 µM (inactive)

Query: What does the record list as GI50 for `CSc1ncc2c(C#N)c3n(C)c4ccccc4n3c(=O)c2n1` ?
Result: > 100 µM (inactive)

Query: Suppose we examine the molecule `O=C1/C(=C/c2ccco2)N=C(c2ccccc2)N1c1cc2cc(Sc3ccccc3)ccc2[nH]1` ; what GI50 value has been reported?
Result: 15.8 µM (inactive)

====

GI50 by entry:
Tested on: U-251
ASSAY TEXT: NCI tumour cell line growth inhibition, 48 h
Activity calls are given as the source filed them. Rule as the data show it: active = GI50 up to about 1.1 µM and inactive = higher.

Worked cases, GI50 given:
Brc1ccccc1/C=C\C1(c2ccccc2)OCCO1; 6.24 µM (inactive)
N#CC(/N=N/c1ccccc1C(=O)O)C(N)=O (stereo unspecified); > 100 µM (inactive)
COc1cc(COC(=O)N2CCCCC2C(=O)O)c([N+](=O)[O-])cc1OC (stereo unspecified); > 100 µM (inactive)
O=S(=O)(N/C(=N\O)Nc1ccc(Cl)cc1)c1ccc(S(=O)(=O)c2ccccc2)s1; 20.8 µM (inactive)
CC(C)(C)OC1=C(OC(C)(C)C)C(O)(c2ccccc2)C1=O (stereo unspecified); > 100 µM (inactive)
CC1(C)[C@@H]2CC[C@@]1(C)C1(S[S+]1[O-])C21Cc2ccccc2C1 (stereo partly specified); 24.9 µM (inactive)

Query: Which GI50 is listed for `CC(=O)c1c2c(cc3c1CC1(C3)Cc3cc4c(c(C(C)=O)c3C1)CCC4)CCC2` ?
Result: > 100 µM (inactive)

Query: Given the compound `Cc1c(NC(=S)Nc2ccc([N+](=O)[O-])cc2)c(=O)n(-c2ccccc2)n1C` , what is its reported GI50?
Result: > 100 µM (inactive)

Query: GET /values?readout=GI50&item= `CC(=O)Oc1ccc2c(c1)[nH]c1c3ccc(OC(C)=O)cc3oc(=O)c21`
Result: 30.5 µM (inactive)

Query: Bench note: what GI50 did CC(=O)OCC1OC(OCC2OC(N3C(=S)N[C@H]([C@@H](O)[C@H](O)[C@H](O)CO)[C@H]3O)C(OC(C)=O)C(OC(C)=O)C2OC(C)=O)C(OC(C)=O)C(OC(C)=O)C1OC(C)=O (stereo partly specified) show?
Result: > 100 µM (inactive)

Query: // returns reported GI50 for input O=C(c1c(O)cc(O)cc1O)C1Cc2ccccc21 (stereo unspecified)
Result: 47.2 µM (inactive)

Query: Fill in: GI50 of `Cc1cccc(/N=N/c2c(C)nn(C(=O)CC(=O)Nc3ccc(Cl)cc3)c2C)c1` is ___
Result: 61.5 µM (inactive)

Query: Using the record for `CC1=C(NC(=O)/C(=N/NC(=S)NN)C2C(=O)CC(C)(C)CC2=O)C(=O)c2ccccc2C1=O` , report its GI50.
Result: 3.91 µM (inactive)

Query: Which measured GI50 value corresponds to `N=C(N)N/N=C(/c1ccccc1)c1ccc(O)cc1O` ?
Result: 22.5 µM (inactive)

Value source: ChEMBL document CHEMBL1201862
